Value source: the supplement of paper PMC9428881

Test: background-corrected fluorescence of 3'-dye-labeled ssDNA relative to brightest sequence (3'-GCGCG) (fraction); higher = brighter dye fluorescence (less quenching)
Details: dye: Cy3 (3' terminal)
So I've got a bunch of sequences here, and I need their background-corrected fluorescence values.
Please give only the number in your answer, with no unit.

Kindly note the recorded background-corrected fluorescence for TTTTTGCATGAGCAGCATCATTTTTTTTTTTTTTTTCTTG [GTTCT] , which is 0.489

Kindly note the recorded background-corrected fluorescence for TTTTTTGATCATGCTGATCATTTTTTTTTTTTTTTCGACG [GCAGC] , which is 0.602

Kindly note the recorded background-corrected fluorescence for TTTTTTGATGCTGATCAGCATTTTTTTTTTTTTTTCACGT [TGCAC] , which is 0.588

Kindly note the recorded background-corrected fluorescence for TTTTTGCATGATGATCAGCATTTTTTTTTTTTTTTTCCGT [TGCCT] , which is 0.613

Kindly note the recorded background-corrected fluorescence for TTTTTTGATGCTCAGCATGCTTTTTTTTTTTTTTTCAGTA [ATGAC] , which is 0.609

Kindly note the recorded background-corrected fluorescence for TTTTTTGATGATGCTGCTCATTTTTTTTTTTTTTTCCAAG [GAACC] , which is 0.521

Kindly note the recorded background-corrected fluorescence for TTTTTTGCTGCGCATCATCATTTTTTTTTTTTTTTAATGG [GGTAA] , which is 0.645

Kindly note the recorded background-corrected fluorescence for TTTTTTCATGCGCATGAGCATTTTTTTTTTTTTTTGATCT [TCTAG] , which is 0.456

Kindly note the recorded background-corrected fluorescence for TTTTTTGCTGAGCATGCTGATTTTTTTTTTTTTTTACTAC [CATCA] , which is 0.477

Kindly note the recorded background-corrected fluorescence for TTTTTGCATGCGCATGCTGCTTTTTTTTTTTTTTTTATAA [AATAT] , which is 0.55

Kindly note the recorded background-corrected fluorescence for TTTTTTGATGCGCATGCGCATTTTTTTTTTTTTTTCATAT [TATAC] , which is 0.501

Kindly note the recorded background-corrected fluorescence for TTTTTTGCTGATGCGCAGCATTTTTTTTTTTTTTTACATT , which is 0.546

Kindly note the recorded background-corrected fluorescence for TTTTTTGATCATGCTGATGATTTTTTTTTTTTTTTCGACC [CCAGC] , which is 0.4

Kindly note the recorded background-corrected fluorescence for TTTTTTGCTCATGCTGCTGCTTTTTTTTTTTTTTTAGAAA [AAAGA] , which is 0.64

Kindly note the recorded background-corrected fluorescence for TTTTTTCATCATGATCATGCTTTTTTTTTTTTTTTGGCGA [AGCGG] , which is 0.714

Kindly note the recorded background-corrected fluorescence for TTTTTTGCTCAGCATCATGATTTTTTTTTTTTTTTAGTGC [CGTGA] , which is 0.518

Kindly note the recorded background-corrected fluorescence for TTTTTTGATGCTCATCAGCATTTTTTTTTTTTTTTCAGGT [TGGAC] , which is 0.693

Kindly note the recorded background-corrected fluorescence for TTTTTTCATCATGATGATGCTTTTTTTTTTTTTTTGGCCA [ACCGG] , which is 0.518

Kindly note the recorded background-corrected fluorescence for TTTTTTGCGCAGCATGCGCATTTTTTTTTTTTTTTATTAT , which is 0.508

Kindly note the recorded background-corrected fluorescence for TTTTTTGATGATCATGCGCATTTTTTTTTTTTTTTCCGAT [TAGCC] , which is 0.603

Kindly note the recorded background-corrected fluorescence for TTTTTTGAGCATGCGCAGCATTTTTTTTTTTTTTTCTATT [TTATC] , which is 0.527

Kindly note the recorded background-corrected fluorescence for TTTTTTCAGCATGCGCATCATTTTTTTTTTTTTTTGTATG , which is 0.57

Kindly note the recorded background-corrected fluorescence for TTTTTTCAGCATGCTCATGCTTTTTTTTTTTTTTTGTAGA [AGATG] , which is 0.671

Kindly note the recorded background-corrected fluorescence for TTTTTGCATGATGCGCATCATTTTTTTTTTTTTTTTCATG [GTACT] , which is 0.524

Kindly note the recorded background-corrected fluorescence for TTTTTTCAGCAGCATGCTCATTTTTTTTTTTTTTTGTTAG [GATTG] , which is 0.541

Kindly note the recorded background-corrected fluorescence for TTTTTTGCTCATGATCAGCATTTTTTTTTTTTTTTAGCGT [TGCGA] , which is 0.679

Kindly note the recorded background-corrected fluorescence for TTTTTTGAGCAGCATCATGCTTTTTTTTTTTTTTTCTTGA [AGTTC] , which is 0.615
